# targetOrTestSystem: Discoidin domain-containing receptor 2 (Homo sapiens, UniProt Q16832)
# Sequence (Q16832 whole entry): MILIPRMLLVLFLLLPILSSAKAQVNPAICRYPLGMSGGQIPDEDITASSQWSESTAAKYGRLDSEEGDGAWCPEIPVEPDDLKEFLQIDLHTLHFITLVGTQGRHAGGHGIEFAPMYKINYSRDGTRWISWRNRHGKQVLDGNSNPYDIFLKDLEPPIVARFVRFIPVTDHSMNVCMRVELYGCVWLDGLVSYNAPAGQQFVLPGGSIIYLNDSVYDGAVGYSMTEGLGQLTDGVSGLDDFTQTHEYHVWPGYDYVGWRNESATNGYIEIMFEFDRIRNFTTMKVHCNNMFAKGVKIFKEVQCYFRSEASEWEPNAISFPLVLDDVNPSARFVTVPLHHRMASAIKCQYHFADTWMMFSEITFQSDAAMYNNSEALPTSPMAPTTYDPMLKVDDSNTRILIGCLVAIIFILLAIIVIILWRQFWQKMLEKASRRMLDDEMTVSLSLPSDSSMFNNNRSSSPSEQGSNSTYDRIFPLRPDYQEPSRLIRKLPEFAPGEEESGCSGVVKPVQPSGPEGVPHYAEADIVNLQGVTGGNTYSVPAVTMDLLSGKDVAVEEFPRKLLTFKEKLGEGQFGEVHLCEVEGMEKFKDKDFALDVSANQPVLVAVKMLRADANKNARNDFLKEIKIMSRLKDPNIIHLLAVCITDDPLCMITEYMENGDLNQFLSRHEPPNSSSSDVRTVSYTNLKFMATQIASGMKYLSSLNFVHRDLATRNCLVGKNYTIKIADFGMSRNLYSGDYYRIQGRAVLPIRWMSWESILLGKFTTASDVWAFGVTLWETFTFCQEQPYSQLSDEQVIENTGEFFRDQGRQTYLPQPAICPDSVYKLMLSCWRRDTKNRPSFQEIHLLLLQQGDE
pKd: −log10 of the molar value.
recordedEndpoint: pKd

>>> assayvalue("Cc1cn(-c2cccc(NC(=O)c3ccc(C)c(Nc4nccc(-c5cccnc5)n4)c3)c2)cn1")
6.49
>>> assayvalue("Cc1cn(-c2cc(F)cc(NC(=O)c3ccc(C)c(Nc4nccc(-c5cccnc5)n4)c3)c2)cn1")
7.85
>>> assayvalue("Cc1cc(NC(=O)c2ccc(C)c(Nc3nccc(-c4cccnc4)n3)c2)cc(-n2cnc(C)c2)c1")
8.25
